B1: NP_116010.1 (parent)
chain: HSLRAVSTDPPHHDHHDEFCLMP

- Variants of: B1
- TEST_DETAILS: protein stability index of a GFP-peptide fusion (GPS, HEK-293T) (PSI 1-6); higher = more stable;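 also: lentivirally expressed fusion library, cells FACS-sorted into six equal-sized GFP/DsRed ratio bins, PSI computed from sequencing read fractions per bin weighted by bin number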
- COND: c terminus: native
Quick reference for protein stability index among some variants
Could you respond with only the numeric value?

Field: example entries. Status: answers known.
BIOSEQUENCE: HSLRVVSTDPPHHDHHDEFCLMP [A5V]
VALUE_KIND: protein stability index
OBSERVED_VALUE: 2.37
//
BIOSEQUENCE: HSLRAVSTDVPHHDHHDEFCLMP [P10V]
VALUE_KIND: protein stability index
OBSERVED_VALUE: 2.29
//
BIOSEQUENCE: HSLRAVSTDPPHHDHHDTFCLMP [E18T]
VALUE_KIND: protein stability index
OBSERVED_VALUE: 2.72
//
BIOSEQUENCE: HSLRAGSTDPPHHDHHDEFCLMP [V6G]
VALUE_KIND: protein stability index
OBSERVED_VALUE: 2.9

Data point: HSLRAVSTDPLHHDHHDEFCLMP [P11L] ; protein stability index = 2.55

Data point: HSLRAVNTDPPHHDHHDEFCLMP [S7N] ; protein stability index = 2.27
